# Tested on: transactivating tegument protein VP16 (Human herpesvirus 1)
# experiment.summary: VP16 transactivation reporter inhibitors, counter-screen for SRC2 inhibitor project, cell-based, luminescence, single concentration (AID 652007)
# experimental.setup: cell-based VP16 transactivation luciferase reporter, at 8.9 µM, stronger effect = higher value

- compound: "O=C(N/N=C/c1coc2ccc(Cl)cc2c1=O)c1ccncc1"
  inhibition / %: -13.1
- compound: "Cc1noc(C)c1COC(=O)c1cccc(S(=O)(=O)N2CCCCCC2)c1"
  inhibition / %: 9.01
- compound: "Brc1cccc(-c2cnc3n2CCCCC3)c1"
  inhibition / %: 12.6
- compound: "CC(C)(C)NC(=O)COC(=O)c1snc(C(=O)NC2CCCCC2)c1N"
  inhibition / %: -7.99
- compound: "CCOc1cc(CNc2ccc3c(c2)OCCO3)cc(Br)c1OCC"
  inhibition / %: -27.7
- compound: "Cc1ccc(-c2nnc(SCCC(=O)N3CCOCC3)o2)cc1"
  inhibition / %: -40.9
- compound: "CCCn1nc([N+](=O)[O-])c(C(C#N)c2nc3ccccc3s2)c(Cl)c1=O (stereo unspecified)"
  inhibition / %: 20.4
- compound: "COc1ccccc1-c1nnc(Sc2nc([N+](=O)[O-])nn2C)o1"
  inhibition / %: 46.1
- compound: "CC(C)(C)n1nc2c(c1NC(=O)c1cc([N+](=O)[O-])ccc1Cl)CS(=O)(=O)C2"
  inhibition / %: 25.2
- compound: "O=C(CCl)N(c1ccccc1)c1c[nH]c2ccccc12"
  inhibition / %: 21.6
- compound: "COc1cccc(CNc2nc(NCC3CC3)nc3ccsc23)c1OC"
  inhibition / %: -3.78
